experimental-system: cloned human NK2 receptors (Homo sapiens, UniProt P21452)
Sequence (P21452 whole entry): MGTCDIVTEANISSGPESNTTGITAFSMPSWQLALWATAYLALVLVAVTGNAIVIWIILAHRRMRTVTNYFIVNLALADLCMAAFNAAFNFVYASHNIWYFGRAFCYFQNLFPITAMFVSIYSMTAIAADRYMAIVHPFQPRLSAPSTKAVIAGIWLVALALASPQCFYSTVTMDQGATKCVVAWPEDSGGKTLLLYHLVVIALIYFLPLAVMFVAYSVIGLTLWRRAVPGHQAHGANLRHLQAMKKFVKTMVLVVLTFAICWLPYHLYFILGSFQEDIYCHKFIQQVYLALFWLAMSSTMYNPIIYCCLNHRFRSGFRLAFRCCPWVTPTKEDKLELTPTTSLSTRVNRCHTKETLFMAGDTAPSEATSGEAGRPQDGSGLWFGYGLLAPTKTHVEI
outcome-measure: Ki (pM)
Hi! Could you send only the number? It should be in pM, unit omitted.

Record CC(=O)NC1(c2cccc(F)c2)CCN(CCC2(c3ccc(Cl)c(Cl)c3)CN(c3ccccc3)C(=O)CO2)CC1 (single isomer, unassigned) has cloned human NK2 receptors (Homo sapiens, UniProt P21452) Ki equal to 160
